assay-remarks: In vivo pharmacokinetics study in beagle dogs
run-parameters: male, beagle, dog, in vivo, po, 15 mg/kg
measurement-label: AUC (ng·h/mL)
The response must be a number in ng·h/mL with no trailing unit.

// query Look up AUC for this molecule: "CCOc1cc2ncnc(Nc3ccc(Oc4ccn5ncnc5c4)c(C)c3)c2cc1NC(=O)/C=C/[C@H]1CCCN1C"
// result 5190

====

In this section we review reported inhibition at 20 min, 10 µM values for a set of molecules.
tested-on: CYP3A4 (Homo sapiens)
Construct: A system of 100 μL human liver microsomes; from tissue; host or cells: human liver microsomes
Sequence (P08684 whole entry): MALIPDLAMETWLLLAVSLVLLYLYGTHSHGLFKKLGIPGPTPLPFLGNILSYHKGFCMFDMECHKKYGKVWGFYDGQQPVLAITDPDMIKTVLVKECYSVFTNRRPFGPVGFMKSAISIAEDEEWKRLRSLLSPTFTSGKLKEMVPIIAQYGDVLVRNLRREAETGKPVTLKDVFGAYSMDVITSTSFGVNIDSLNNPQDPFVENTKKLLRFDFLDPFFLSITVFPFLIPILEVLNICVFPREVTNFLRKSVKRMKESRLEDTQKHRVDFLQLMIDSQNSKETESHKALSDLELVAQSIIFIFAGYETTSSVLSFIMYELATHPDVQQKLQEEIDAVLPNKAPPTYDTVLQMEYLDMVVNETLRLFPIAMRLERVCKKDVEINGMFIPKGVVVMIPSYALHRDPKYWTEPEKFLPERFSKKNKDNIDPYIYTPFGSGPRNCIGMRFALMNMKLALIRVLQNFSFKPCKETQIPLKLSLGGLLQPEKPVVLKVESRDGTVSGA
assay-remarks: Direct inhibition (DI) of CYP3A4 in human liver microsomes
Format: in vitro ADME
run-parameters: human liver microsomes 0.2 mg/mL, 10 μM compound, probe Testosterone, read-out: Direct inhibition (DI) 3A4 (testosterone)

Past entries and their recorded results:
// query Look up inhibition at 20 min, 10 µM for this molecule: "CCOc1cc2ncnc(Nc3ccc(Oc4ccn5ncnc5c4)c(C)c3)c2cc1NC(=O)/C(F)=C\[C@H]1CCCN1C"
// result 13%

// query Look up inhibition at 20 min, 10 µM for this molecule: C=CC(=O)N1CCCC(Nc2ccc3ncnc(Nc4ccc(Oc5cc6nncn6cn5)c(C)c4)c3c2)C1 (stereo in doubt)
// result 72%

// query Look up inhibition at 20 min, 10 µM for this molecule: "CCOc1cc2ncc(C#N)c(Nc3ccc(Oc4cc5nncn5cn4)c(C)c3)c2cc1NC(=O)/C=C/[C@H]1CCCN1C"
// result 17%

// query Look up inhibition at 20 min, 10 µM for this molecule: "Cc1cc(Nc2ncnc3ccc(NC(=O)/C(F)=C\[C@H]4CCCN4C)cc23)ccc1Oc1ccn2ncnc2c1"
// result 9%

// query Look up inhibition at 20 min, 10 µM for this molecule: "Cc1cc(Nc2ncnc3ccc(NC(=O)/C=C/[C@H]4CCCN4C)cc23)ccc1Oc1ccc2nccn2n1"
// result 29%

API: the following record is the query input.
// query Look up inhibition at 20 min, 10 µM for this molecule: "C=CC(=O)N[C@H]1CCCN(c2ccc3ncnc(Nc4ccc(Oc5cc6nncn6cn5)c(C)c4)c3c2)C1"
// result 74%
